Below: a set of entries, each annotated with reported Ki.
assayTarget: Adrenergic receptor alpha-2 (Rattus norvegicus, UniProt P22086+P19328+P22909)
measurementDescription: Binding affinity for rat alpha-2 adrenergic receptor from crude P2 membranes
measuredEndpoint: Ki (µM)

c1ccc2oc(C3=NCCN3)cc2c1 4
C(=C\c1ccccc1)/C1=NCCN1 7.413
COc1ccc2c3c([nH]c2c1)CNCC3 8.84
c1ccc2c3c([nH]c2c1)CNCC3 0.71

----------
measurementDescription: Binding affinity for rat imidazoline I2 receptor from crude P2 membranes; 350-880
measuredEndpoint: Ki

c1ccc2oc(-c3ncc[nH]3)cc2c1 ~880 nM

Source listed as ChEMBL document CHEMBL1147410.
